Record form. Attribute: mass density. Fill in for each entry.
CONDITION_INFO: 318.15 K; 60000 kPa; Liquid; vibrating tube
Numbers after ± are expanded uncertainties.

In the examples that follow, each entry is paired with its recorded mass density.
INSERT INTO measurements (compound, measurement_name, result) VALUES
  ('CCn1cc[n+](C)c1.F[B-](F)(F)F [1-ethyl-3-methylimidazolium tetrafluoroborate]', 'mass density', '1295.92 ± 1.7 kg/m3'),
  ('CCCCn1cc[n+](C)c1.F[B-](F)(F)F [1-butyl-3-methylimidazolium tetrafluoroborate]', 'mass density', '1214.15 ± 0.97 kg/m3'),
  ('CCCCCCCC[n+]1ccn(C)c1.F[B-](F)(F)F [1-methyl-3-octylimidazolium tetrafluoroborate]', 'mass density', '1119.54 ± 0.93 kg/m3');

// below: mass density requested for another compound
get_value(item= CCCCCCn1cc[n+](C)c1.F[B-](F)(F)F [1-hexyl-3-methylimidazolium tetrafluoroborate] , readout=mass density) returns 1159.5 ± 0.95 kg/m3

###

CONDITION_INFO: 288.15 K; 14000 kPa; Liquid; vibrating tube
For each record, write down the corresponding mass density.
One number for each entry, in kg/m3.

INSERT INTO assay_data (compound, recorded_number) VALUES
  ('CCCCCCCC[n+]1ccn(C)c1.F[B-](F)(F)F [1-methyl-3-octylimidazolium tetrafluoroborate]', 1117.9),
  ('CCn1cc[n+](C)c1.F[B-](F)(F)F [1-ethyl-3-methylimidazolium tetrafluoroborate]', 1299.08),
  ('CCCCCCn1cc[n+](C)c1.F[B-](F)(F)F [1-hexyl-3-methylimidazolium tetrafluoroborate]', 1158.97);

Read the next record carefully.
Given item CCCCn1cc[n+](C)c1.F[B-](F)(F)F [1-butyl-3-methylimidazolium tetrafluoroborate] , the value recorded as its mass density is 1215.09

###

Kindly supply the reported mass density values for the records listed here.
CONDITION_INFO: 308.15 K; 8000 kPa; Liquid; vibrating tube
Answers are plain numbers, in kg/m3.

INSERT INTO assay_data (compound, measurement_name, value_unit, recorded_number) VALUES
  ('CCCCCCn1cc[n+](C)c1.F[B-](F)(F)F [1-hexyl-3-methylimidazolium tetrafluoroborate]', 'mass density', 'kg/m3', 1142.48),
  ('CCCCCCCC[n+]1ccn(C)c1.F[B-](F)(F)F [1-methyl-3-octylimidazolium tetrafluoroborate]', 'mass density', 'kg/m3', 1101.64),
  ('CCCCn1cc[n+](C)c1.F[B-](F)(F)F [1-butyl-3-methylimidazolium tetrafluoroborate]', 'mass density', 'kg/m3', 1198.26);

Now examine the next entry.
Value of measured mass density for the entry CCn1cc[n+](C)c1.F[B-](F)(F)F [1-ethyl-3-methylimidazolium tetrafluoroborate] : 1281.46

###

Please go through the items and note down their mass density.
CONDITION_INFO: 283.15 K; 8000 kPa; Liquid; vibrating tube
Numbers only, in kg/m3.

Previously resolved entries follow.
INSERT INTO measurements (molecule, measurement_name, value_unit, recorded_number) VALUES
  ('CCCCn1cc[n+](C)c1.F[B-](F)(F)F [1-butyl-3-methylimidazolium tetrafluoroborate]', 'mass density', 'kg/m3', 1216),
  ('CCCCCCCC[n+]1ccn(C)c1.F[B-](F)(F)F [1-methyl-3-octylimidazolium tetrafluoroborate]', 'mass density', 'kg/m3', 1118.4),
  ('CCn1cc[n+](C)c1.F[B-](F)(F)F [1-ethyl-3-methylimidazolium tetrafluoroborate]', 'mass density', 'kg/m3', 1300.36);

Moving on to another molecule below.
For CCCCCCn1cc[n+](C)c1.F[B-](F)(F)F [1-hexyl-3-methylimidazolium tetrafluoroborate] the molecule record lists mass density as 1159.61

###

For each entry below, report its mass density value.
CONDITION_INFO: 298.15 K; 10000 kPa; Liquid; vibrating tube
Answers are plain numbers, in kg/m3.

Answered cases to consult:
INSERT INTO results (compound, value_unit, recorded_number) VALUES
  ('CCCCn1cc[n+](C)c1.F[B-](F)(F)F [1-butyl-3-methylimidazolium tetrafluoroborate]', 'kg/m3', 1206.22),
  ('CCn1cc[n+](C)c1.F[B-](F)(F)F [1-ethyl-3-methylimidazolium tetrafluoroborate]', 'kg/m3', 1289.83),
  ('CCCCCCCC[n+]1ccn(C)c1.F[B-](F)(F)F [1-methyl-3-octylimidazolium tetrafluoroborate]', 'kg/m3', 1109.29);

Pending compound:
mass density for CCCCCCn1cc[n+](C)c1.F[B-](F)(F)F [1-hexyl-3-methylimidazolium tetrafluoroborate] is 1150.27

###

CONDITION_INFO: 313.15 K; 100 kPa; Liquid; vibrating tube
MEASUREMENT_NAME: mass density (kg/m3)
Answers are plain numbers, in kg/m3.

INSERT INTO measurements (molecule, measurement_name, value_unit, recorded_number) VALUES
  ('CCCCCCn1cc[n+](C)c1.F[B-](F)(F)F [1-hexyl-3-methylimidazolium tetrafluoroborate]', 'mass density', 'kg/m3', 1135.1);

Each of the following entries comes with a recorded value; kindly state mass density for each.
1. CCn1cc[n+](C)c1.F[B-](F)(F)F [1-ethyl-3-methylimidazolium tetrafluoroborate]
2. CCCCn1cc[n+](C)c1.F[B-](F)(F)F [1-butyl-3-methylimidazolium tetrafluoroborate]
3. CCCCCCCC[n+]1ccn(C)c1.F[B-](F)(F)F [1-methyl-3-octylimidazolium tetrafluoroborate]

Reply text:
[1274.17, 1191.01, 1094.13]

###

CONDITION_INFO: 293.15 K; 60000 kPa; Liquid; vibrating tube
Please provide measured mass density for the entries that follow.
Numbers only, in kg/m3.

Field: example entries. Status: answers known.
INSERT INTO measurements (molecule, value_unit, recorded_number) VALUES
  ('CCCCn1cc[n+](C)c1.F[B-](F)(F)F [1-butyl-3-methylimidazolium tetrafluoroborate]', 'kg/m3', 1230.53),
  ('CCCCCCn1cc[n+](C)c1.F[B-](F)(F)F [1-hexyl-3-methylimidazolium tetrafluoroborate]', 'kg/m3', 1175.18),
  ('CCCCCCCC[n+]1ccn(C)c1.F[B-](F)(F)F [1-methyl-3-octylimidazolium tetrafluoroborate]', 'kg/m3', 1134.64);

Now for another entry.
CCn1cc[n+](C)c1.F[B-](F)(F)F [1-ethyl-3-methylimidazolium tetrafluoroborate] yielded mass density of 1313.49

###

CONDITION_INFO: 308.15 K; 20000 kPa; Liquid; vibrating tube
Answer each item with its documented mass density.
One number for each entry, in kg/m3.

INSERT INTO results (compound, recorded_number) VALUES
  ('CCCCCCCC[n+]1ccn(C)c1.F[B-](F)(F)F [1-methyl-3-octylimidazolium tetrafluoroborate]', 1107.61);

Provide mass density values for the following items, in order.
1. CCCCCCn1cc[n+](C)c1.F[B-](F)(F)F [1-hexyl-3-methylimidazolium tetrafluoroborate]
2. CCCCn1cc[n+](C)c1.F[B-](F)(F)F [1-butyl-3-methylimidazolium tetrafluoroborate]
3. CCn1cc[n+](C)c1.F[B-](F)(F)F [1-ethyl-3-methylimidazolium tetrafluoroborate]

Reply text:
1: 1148.24; 2: 1203.74; 3: 1286.68

###

CONDITION_INFO: 288.15 K; 100 kPa; Liquid; vibrating tube
± gives the expanded uncertainty stated by the source.
I'd be grateful if you could share measured mass density for these entries.

Sample records with mass density:
INSERT INTO assay_data (molecule, measurement_name, result) VALUES
  ('CCCCCCCC[n+]1ccn(C)c1.F[B-](F)(F)F [1-methyl-3-octylimidazolium tetrafluoroborate]', 'mass density', '1111.12 ± 0.95 kg/m3'),
  ('CCCCCCn1cc[n+](C)c1.F[B-](F)(F)F [1-hexyl-3-methylimidazolium tetrafluoroborate]', 'mass density', '1152.44 ± 0.97 kg/m3'),
  ('CCn1cc[n+](C)c1.F[B-](F)(F)F [1-ethyl-3-methylimidazolium tetrafluoroborate]', 'mass density', '1293.21 ± 1.6 kg/m3');

// mass density value for CCCCn1cc[n+](C)c1.F[B-](F)(F)F [1-butyl-3-methylimidazolium tetrafluoroborate] : 1208.87 ± 0.99 kg/m3

###

CONDITION_INFO: 323.15 K; 2000 kPa; Liquid; vibrating tube
Give mass density for every item shown.
Answers are plain numbers, in kg/m3.

INSERT INTO assay_data (compound, recorded_number) VALUES
  ('CCCCCCn1cc[n+](C)c1.F[B-](F)(F)F [1-hexyl-3-methylimidazolium tetrafluoroborate]', 1129.31),
  ('CCCCCCCC[n+]1ccn(C)c1.F[B-](F)(F)F [1-methyl-3-octylimidazolium tetrafluoroborate]', 1088.5),
  ('CCCCn1cc[n+](C)c1.F[B-](F)(F)F [1-butyl-3-methylimidazolium tetrafluoroborate]', 1184.97);

Next, consider the following compound.
Documented mass density of CCn1cc[n+](C)c1.F[B-](F)(F)F [1-ethyl-3-methylimidazolium tetrafluoroborate] : 1267.58
